Values were extracted from PubChem BioAssay (NCI).

Test system: EKVX NSCLC
assay.procedure: NCI tumour cell line growth inhibition, 48 h; in the data active = GI50 below about 0.43 µM; inactive = the rest
Labels: active, inactive

| compound | label.value |
| --- | --- |
| OCCCNc1nc(=S)[nH]c2[nH]ncc12 | inactive |
| N#CC(C#N)=C1Nc2ccccc2S1 | inactive |
| O=S(=O)(NC1=NCCN1C(=S)SN1CCn2c1nsc2=S)c1cccc(Cl)c1 | inactive |
| CCCCCCCCn1ccc2cc(NC(=O)Cn3cc(CN4CCCC4)nn3)ccc21 | inactive |
| C#CCNC(=O)c1cccc2c1cc(C)n2-c1nc2c(c(NCc3ccccc3)n1)CCCC2 | active |
| O=C1Nc2ccccc2C1(c1ccc(O)cc1)c1ccc(O)cc1 | inactive |
| O=C(CCc1nnc2sc(-c3ccc(Cl)cc3Cl)nn12)c1nc2ccccc2[nH]1 | inactive |
| Nc1nc2c(nnn2C2CC(O)C(CO)O2)c(=O)[nH]1 (stereo not given) | inactive |
| C=C(C[C@](O)(C(=O)/C=C/c1ccc(Cl)cc1)C(=O)OC)c1ccccc1 | inactive |
| NC(=O)NS(=O)(=O)c1ccc(N2N=C(C(F)(F)F)CC2c2cc(C(F)(F)F)cc(C(F)(F)F)c2)cc1 (stereo not given) | inactive |
